test system: PC-3 PIP/flu tumor-bearing mice; assay: Biodistribution in PC-3 PIP/flu tumor-bearing mice; settings: 15 min p.i., i.v.
Each record here notes measured Bone.
Kindly provide the numeric value in % IA/g only, without the unit symbol.

Known results for molecules:
molecule: O=C([O-])CN1CCN(CC(=O)[O-])CCN(CC(=O)NCC2CCC(C(=O)NC(Cc3ccc4ccccc4c3)C(=O)NCCCCC(NC(=O)NC(CCC(=O)O)C(=O)O)C(=O)O)CC2)CCN(CC(=O)[O-])CC1.[44Sc+3] (stereo not shown) [^44Sc-PSMA-617]
tested.target: PC-3 PIP/flu tumor-bearing mice
readout.label: Bone
measured.number: 2.75
--
molecule: O=C([O-])CN1CCN(CC(=O)[O-])CCN(CC(=O)NCC2CCC(C(=O)N[C@@H](Cc3ccc4ccccc4c3)C(=O)NCCCC[C@H](NC(=O)N[C@@H](CCC(=O)O)C(=O)O)C(=O)O)CC2)CCN(CC(=O)[O-])CC1.[177Lu+3] (stereo partly shown) [^177Lu-PSMA-617]
tested.target: PC-3 PIP/flu tumor-bearing mice
readout.label: Bone
measured.number: 2.03
--
molecule: O=C([O-])CN(CCN(CC(=O)[O-])Cc1cc(CCC(=O)NCCCCCC(=O)NCCCC[C@H](NC(=O)N[C@@H](CCC(=O)O)C(=O)O)C(=O)O)ccc1[O-])Cc1cc(CCC(=O)O)ccc1[O-].[68Ga+3] [^68Ga-PSMA-11]
tested.target: PC-3 PIP/flu tumor-bearing mice
readout.label: Bone
measured.number: 1.85

Next:
Query O=C([O-])CN1CCN(CC(=O)[O-])CCN(CC(=O)NCC2CCC(C(=O)NC(Cc3ccc4ccccc4c3)C(=O)NCCCCC(NC(=O)NC(CCC(=O)O)C(=O)O)C(=O)O)CC2)CCN(CC(=O)[O-])CC1.[68Ga+3] (stereo not shown) [^68Ga-PSMA-617] yields Bone of 1.72

* * *

tested on: PC-3 PIP/flu tumor-bearing mice; assay: Biodistribution in PC-3 PIP/flu tumor-bearing mice; details: 30 min p.i., i.v.
Each record here notes measured Lung.
Kindly provide the numeric value in % IA/g only, without the unit symbol.

Known results for compounds:
compound: O=C([O-])CN(CCN(CC(=O)[O-])Cc1cc(CCC(=O)NCCCCCC(=O)NCCCC[C@H](NC(=O)N[C@@H](CCC(=O)O)C(=O)O)C(=O)O)ccc1[O-])Cc1cc(CCC(=O)O)ccc1[O-].[68Ga+3] [^68Ga-PSMA-11]
tested.target: PC-3 PIP/flu tumor-bearing mice
unit.symbol: % IA/g
Lung: 2.23

compound: O=C([O-])CN1CCN(CC(=O)[O-])CCN(CC(=O)NCC2CCC(C(=O)N[C@@H](Cc3ccc4ccccc4c3)C(=O)NCCCC[C@H](NC(=O)N[C@@H](CCC(=O)O)C(=O)O)C(=O)O)CC2)CCN(CC(=O)[O-])CC1.[177Lu+3] (stereo partly shown) [^177Lu-PSMA-617]
tested.target: PC-3 PIP/flu tumor-bearing mice
unit.symbol: % IA/g
Lung: 2.51

compound: O=C([O-])CN1CCN(CC(=O)[O-])CCN(CC(=O)NCC2CCC(C(=O)NC(Cc3ccc4ccccc4c3)C(=O)NCCCCC(NC(=O)NC(CCC(=O)O)C(=O)O)C(=O)O)CC2)CCN(CC(=O)[O-])CC1.[68Ga+3] (stereo not shown) [^68Ga-PSMA-617]
tested.target: PC-3 PIP/flu tumor-bearing mice
unit.symbol: % IA/g
Lung: 2.55

Next:
Here O=C([O-])CN1CCN(CC(=O)[O-])CCN(CC(=O)NCC2CCC(C(=O)NC(Cc3ccc4ccccc4c3)C(=O)NCCCCC(NC(=O)NC(CCC(=O)O)C(=O)O)C(=O)O)CC2)CCN(CC(=O)[O-])CC1.[44Sc+3] (stereo not shown) [^44Sc-PSMA-617] was tested on PC-3 PIP/flu tumor-bearing mice, and its Lung came to 2.06

* * *

Each record here notes measured Liver.
tested on: PC-3 PIP/flu tumor-bearing mice; assay: Biodistribution in PC-3 PIP/flu tumor-bearing mice; settings: 15 min p.i., i.v.
Kindly provide the numeric value in % IA/g only, without the unit symbol.

Known results for compounds:
compound: O=C([O-])CN(CCN(CC(=O)[O-])Cc1cc(CCC(=O)NCCCCCC(=O)NCCCC[C@H](NC(=O)N[C@@H](CCC(=O)O)C(=O)O)C(=O)O)ccc1[O-])Cc1cc(CCC(=O)O)ccc1[O-].[68Ga+3] [^68Ga-PSMA-11]
Liver / % IA/g: 2.00
//
compound: O=C([O-])CN1CCN(CC(=O)[O-])CCN(CC(=O)NCC2CCC(C(=O)NC(Cc3ccc4ccccc4c3)C(=O)NCCCCC(NC(=O)NC(CCC(=O)O)C(=O)O)C(=O)O)CC2)CCN(CC(=O)[O-])CC1.[44Sc+3] (stereo not shown) [^44Sc-PSMA-617]
Liver / % IA/g: 1.98
//
compound: O=C([O-])CN1CCN(CC(=O)[O-])CCN(CC(=O)NCC2CCC(C(=O)N[C@@H](Cc3ccc4ccccc4c3)C(=O)NCCCC[C@H](NC(=O)N[C@@H](CCC(=O)O)C(=O)O)C(=O)O)CC2)CCN(CC(=O)[O-])CC1.[177Lu+3] (stereo partly shown) [^177Lu-PSMA-617]
Liver / % IA/g: 1.63

Next:
Query O=C([O-])CN1CCN(CC(=O)[O-])CCN(CC(=O)NCC2CCC(C(=O)NC(Cc3ccc4ccccc4c3)C(=O)NCCCCC(NC(=O)NC(CCC(=O)O)C(=O)O)C(=O)O)CC2)CCN(CC(=O)[O-])CC1.[68Ga+3] (stereo not shown) [^68Ga-PSMA-617] yields Liver of 4.74

* * *

test system: PC-3 PIP/flu tumor-bearing mice; assay: Biodistribution in PC-3 PIP/flu tumor-bearing mice; settings: 2 h p.i., i.v.
readout.label: Liver (% IA/g)
Kindly provide the numeric value in % IA/g only, without the unit symbol.

compound: O=C([O-])CN1CCN(CC(=O)[O-])CCN(CC(=O)NCC2CCC(C(=O)NC(Cc3ccc4ccccc4c3)C(=O)NCCCCC(NC(=O)NC(CCC(=O)O)C(=O)O)C(=O)O)CC2)CCN(CC(=O)[O-])CC1.[44Sc+3] (stereo not shown) [^44Sc-PSMA-617]
Liver / % IA/g: 0.22
--
compound: O=C([O-])CN1CCN(CC(=O)[O-])CCN(CC(=O)NCC2CCC(C(=O)NC(Cc3ccc4ccccc4c3)C(=O)NCCCCC(NC(=O)NC(CCC(=O)O)C(=O)O)C(=O)O)CC2)CCN(CC(=O)[O-])CC1.[68Ga+3] (stereo not shown) [^68Ga-PSMA-617]
Liver / % IA/g: 1.60
--
compound: O=C([O-])CN(CCN(CC(=O)[O-])Cc1cc(CCC(=O)NCCCCCC(=O)NCCCC[C@H](NC(=O)N[C@@H](CCC(=O)O)C(=O)O)C(=O)O)ccc1[O-])Cc1cc(CCC(=O)O)ccc1[O-].[68Ga+3] [^68Ga-PSMA-11]
Liver / % IA/g: 0.56

Query O=C([O-])CN1CCN(CC(=O)[O-])CCN(CC(=O)NCC2CCC(C(=O)N[C@@H](Cc3ccc4ccccc4c3)C(=O)NCCCC[C@H](NC(=O)N[C@@H](CCC(=O)O)C(=O)O)C(=O)O)CC2)CCN(CC(=O)[O-])CC1.[177Lu+3] (stereo partly shown) [^177Lu-PSMA-617] yields Liver of 0.13

* * *

Each record here notes measured LogD values.
experiment: n-octanol/PBS distribution coefficient (shake-flask); format: physicochemical; conditions: n-octanol/PBS pH 7.4, shake-flask
Write the value as a bare number.

Known results for compounds:
compound: O=C([O-])CN1CCN(CC(=O)[O-])CCN(CC(=O)NCC2CCC(C(=O)NC(Cc3ccc4ccccc4c3)C(=O)NCCCCC(NC(=O)NC(CCC(=O)O)C(=O)O)C(=O)O)CC2)CCN(CC(=O)[O-])CC1.[68Ga+3] (stereo not shown) [^68Ga-PSMA-617]
measured.number: −4.30
//
compound: O=C([O-])CN(CCN(CC(=O)[O-])Cc1cc(CCC(=O)NCCCCCC(=O)NCCCC[C@H](NC(=O)N[C@@H](CCC(=O)O)C(=O)O)C(=O)O)ccc1[O-])Cc1cc(CCC(=O)O)ccc1[O-].[68Ga+3] [^68Ga-PSMA-11]
measured.number: −4.82
//
compound: O=C([O-])CN1CCN(CC(=O)[O-])CCN(CC(=O)NCC2CCC(C(=O)N[C@@H](Cc3ccc4ccccc4c3)C(=O)NCCCC[C@H](NC(=O)N[C@@H](CCC(=O)O)C(=O)O)C(=O)O)CC2)CCN(CC(=O)[O-])CC1.[177Lu+3] (stereo partly shown) [^177Lu-PSMA-617]
measured.number: −4.18

Next:
Query O=C([O-])CN1CCN(CC(=O)[O-])CCN(CC(=O)NCC2CCC(C(=O)NC(Cc3ccc4ccccc4c3)C(=O)NCCCCC(NC(=O)NC(CCC(=O)O)C(=O)O)C(=O)O)CC2)CCN(CC(=O)[O-])CC1.[44Sc+3] (stereo not shown) [^44Sc-PSMA-617] yields LogD values of −4.21
